- MEASUREMENT_TARGET: Protein farnesyltransferase (Homo sapiens, UniProt P49354+P49356)
- PROCEDURE_TEXT: In vitro inhibition of farnesyl transferase
- Type: protein-complex assay
MEASURED_ATTRIBUTE: IC50 (nM)

compound=CSCC[C@H](NC(=O)[C@@H]1Cc2ccccc2CN1C(=O)CN(CCS)C(=O)OC(C)(C)C)C(=O)O limit_operator=> quantitative_result=100000
compound=COC(=O)[C@H](CCSC)NC(=O)[C@@H]1Cc2ccccc2CN1C(=O)CNCCS limit_operator== quantitative_result=290
compound="CSCCC(NC(=O)C1Cc2ccccc2CN1CC(=O)NCCS)C(=O)O (centres undefined)" limit_operator== quantitative_result=2000
compound=COC(=O)[C@H](CCSC)NC(=O)[C@@H]1Cc2ccccc2CN1C(=O)CNCCSSCCNCC(=O)N1Cc2ccccc2C[C@H]1C(=O)N[C@@H](CCSC)C(=O)OC limit_operator== quantitative_result=145

---

- MEASUREMENT_TARGET: Protein farnesyltransferase (Mus musculus, UniProt Q61239+Q8K2I1)
- PROCEDURE_TEXT: Inhibition of farnesyl transferase in NIH3T3 cell based assay under reducing (+DTT) conditions
- Type: functional
pIC50: −log10 of the molar value.
MEASURED_ATTRIBUTE: pIC50

query_smiles=COC(=O)[C@H](CCSC)NC(=O)[C@@H]1Cc2ccccc2CN1C(=O)CNCCSSCCNCC(=O)N1Cc2ccccc2C[C@H]1C(=O)N[C@@H](CCSC)C(=O)OC measured_attribute=pIC50 result=4.00
query_smiles=COC(=O)[C@H](CCSC)NC(=O)[C@@H]1Cc2ccccc2CN1C(=O)CN(CCSSCCN(CC(=O)N1Cc2ccccc2C[C@H]1C(=O)N[C@@H](CCSC)C(=O)OC)C(=O)OC(C)(C)C)C(=O)OC(C)(C)C measured_attribute=pIC50 result="< 3.00"
query_smiles=CSCC[C@H](NC(=O)[C@@H]1Cc2ccccc2CN1C(=O)CN(CCSSCCN(CC(=O)N1Cc2ccccc2C[C@H]1C(=O)N[C@@H](CCSC)C(=O)O)C(=O)OC(C)(C)C)C(=O)OC(C)(C)C)C(=O)O measured_attribute=pIC50 result="< 3.00"
query_smiles=CSCC[C@H](NC(=O)[C@@H]1Cc2ccccc2CN1C(=O)CNCCSSCCNCC(=O)N1Cc2ccccc2C[C@H]1C(=O)N[C@@H](CCSC)C(=O)O)C(=O)O measured_attribute=pIC50 result="< 3.00"

---

- MEASUREMENT_TARGET: Protein farnesyltransferase (Homo sapiens, UniProt P49354+P49356)
- PROCEDURE_TEXT: In vitro inhibition of farnesyl transferase
- Format: protein-complex assay
pIC50: −log10 of the molar value.
Below, each entry is listed with its recorded pIC50.
MEASURED_ATTRIBUTE: pIC50

query_smiles=CSCC[C@H](NC(=O)[C@@H]1Cc2ccccc2CN1C(=O)CNCCS)C(=O)O measured_attribute=pIC50 limit_operator== quantitative_result=7.00
query_smiles=CSCC[C@H](NC(=O)[C@@H]1Cc2ccccc2CN1C(=O)CN(CCSSCCN(CC(=O)N1Cc2ccccc2C[C@H]1C(=O)N[C@@H](CCSC)C(=O)O)C(=O)OC(C)(C)C)C(=O)OC(C)(C)C)C(=O)O measured_attribute=pIC50 limit_operator=< quantitative_result=4.00
query_smiles=CSCC[C@H](NC(=O)[C@@H]1Cc2ccccc2CN1C(=O)CNCCSSCCNCC(=O)N1Cc2ccccc2C[C@H]1C(=O)N[C@@H](CCSC)C(=O)O)C(=O)O measured_attribute=pIC50 limit_operator== quantitative_result=7.30
query_smiles=COC(=O)[C@H](CCSC)NC(=O)[C@@H]1Cc2ccccc2CN1C(=O)CN(CCSSCCN(CC(=O)N1Cc2ccccc2C[C@H]1C(=O)N[C@@H](CCSC)C(=O)OC)C(=O)OC(C)(C)C)C(=O)OC(C)(C)C measured_attribute=pIC50 limit_operator=< quantitative_result=4.00
query_smiles=COC(=O)[C@H](CCSC)NC(=O)[C@@H]1Cc2ccccc2CN1C(=O)CN(CCS)C(=O)OC(C)(C)C measured_attribute=pIC50 limit_operator=< quantitative_result=4.00

---

- MEASUREMENT_TARGET: Protein farnesyltransferase (Homo sapiens, UniProt P49354+P49356)
- PROCEDURE_TEXT: In vitro inhibition of Human farnesyl transferase
- Format: protein-complex assay
MEASURED_ATTRIBUTE: IC50 (nM)

query_smiles=CSCC[C@H](NC(=O)[C@@H]1Cc2ccccc2CN1C(=O)[C@H](C(C)C)N(C)C(=O)[C@@H](N)CS)C(=O)O measurement_target="Protein farnesyltransferase (Homo sapiens, UniProt P49354+P49356)" reading_unit=nM quantitative_result=5
